- target.or.system: iNOS (Homo sapiens, UniProt P35228)
- protocol.text: abcam NOS Inhibitor Screening Kit, IC50 (fluorescence)
- Assay type: biochemical
- Set-up: IC50; IC50
- measurement.context: abcam NOS Inhibitor Screening Kit, Table C-1
quantity.kind: IC50

Enquiry: # query: IC50 of entry Cc1ccc(C#N)c(O[C@H](CCNCCc2c[nH]cn2)c2ccccc2)n1 [GT-5023]
Return: 5.43 µM

Enquiry: # query: IC50 of entry N#Cc1ccc(Cl)cc1CN(CCNCCO)c1ccccc1 [GT-7010]
Return: 9.18 µM

Enquiry: # query: IC50 of entry N#Cc1ccc(Cl)cc1OC(CCN1C(=O)c2ccccc2C1=O)c1ccn2ccnc2c1 (stereo not shown) [GT-6065]
Return: 0.0678 µM

Enquiry: # query: IC50 of entry Cc1ccc(C#N)c(O[C@H](CCNC[C@H](O)CO)c2ccccc2)n1 [GT-5024]
Return: 2.34 µM

Enquiry: # query: IC50 of entry N#Cc1ccc(Cl)cc1C(=O)N(CCNCCCO)c1ccccc1 [GT-7011]
Return: 0.29 µM

Enquiry: # query: IC50 of entry NCCN(Cc1cc(Cl)ccc1Br)c1ccccc1 [GT-7006]
Return: 157 µM

Enquiry: # query: IC50 of entry Cc1ccc(C#N)c(O[C@H](CCNCCN(C)C)c2ccccc2)n1 [GT-5019]
Return: 9.62 µM

Enquiry: # query: IC50 of entry N#Cc1ccc(Cl)cc1CN(CCNC[C@@H](O)CO)c1ccccc1 [GT-7016]
Return: 8.52 µM

Enquiry: # query: IC50 of entry Cc1ccc(C#N)c(O[C@H](CCNC(C)(C)C)c2ccccc2)n1 [GT-5018]
Return: 5.04 µM

Enquiry: # query: IC50 of entry N#Cc1ccc(Cl)cc1C(=O)N(CCNCCO)c1ccccc1 [GT-7009]
Return: 0.148 µM
